Cited source for all entries: patent US10898504B2

target: PRMT5-MEP50 enzyme (Homo sapiens); construct: One virus expresses full length human PRMT5 with Flag-tag at N-terminus; test: In vitro assay (Assay 1): PRMT5-MEP50 high throughput mass spectrometer assay, inhibition of SAH formation; type: biochemical; conditions: individual measurements shown, read-out: pIC50 Assay 1 (converted)
Sequence (O14744 whole entry): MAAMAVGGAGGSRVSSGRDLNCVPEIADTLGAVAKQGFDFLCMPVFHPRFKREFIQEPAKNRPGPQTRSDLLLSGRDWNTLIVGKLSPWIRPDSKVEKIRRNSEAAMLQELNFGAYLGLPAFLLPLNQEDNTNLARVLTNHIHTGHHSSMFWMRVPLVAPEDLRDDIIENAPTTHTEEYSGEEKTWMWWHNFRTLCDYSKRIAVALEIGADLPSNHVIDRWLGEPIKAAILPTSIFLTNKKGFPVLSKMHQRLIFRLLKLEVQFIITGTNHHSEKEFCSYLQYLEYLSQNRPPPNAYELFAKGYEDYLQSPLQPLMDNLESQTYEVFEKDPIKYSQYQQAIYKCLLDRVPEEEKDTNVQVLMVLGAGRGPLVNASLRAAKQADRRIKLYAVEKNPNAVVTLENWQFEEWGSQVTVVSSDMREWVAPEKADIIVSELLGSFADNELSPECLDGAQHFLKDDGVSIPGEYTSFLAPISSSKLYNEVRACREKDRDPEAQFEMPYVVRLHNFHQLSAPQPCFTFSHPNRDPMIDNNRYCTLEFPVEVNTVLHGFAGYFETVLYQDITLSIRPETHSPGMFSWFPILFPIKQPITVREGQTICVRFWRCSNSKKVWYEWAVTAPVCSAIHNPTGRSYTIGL
Sequence (Q9BQA1 whole entry partner): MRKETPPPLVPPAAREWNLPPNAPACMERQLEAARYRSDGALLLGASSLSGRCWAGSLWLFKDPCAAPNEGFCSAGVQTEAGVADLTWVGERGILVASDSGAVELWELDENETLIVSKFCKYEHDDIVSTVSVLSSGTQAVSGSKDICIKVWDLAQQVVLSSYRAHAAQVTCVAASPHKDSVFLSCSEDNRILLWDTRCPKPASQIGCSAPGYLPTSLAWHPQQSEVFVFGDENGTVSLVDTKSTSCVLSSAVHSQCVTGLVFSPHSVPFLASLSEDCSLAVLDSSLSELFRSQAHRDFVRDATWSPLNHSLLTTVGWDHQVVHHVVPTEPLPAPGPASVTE
Endpoint: IC50 (µM)

Some molecules with known IC50 results, for comparison:
Qu. Name the recorded IC50 for Nc1ncnc2c1ccn2[C@@H]1O[C@H](CN2CCC3(CNCCC3(F)F)C2)[C@@H](O)[C@H]1O (stereo partly drawn) .
Ans. 1.62

Qu. What about this molecule? Nc1ncnc2c1ccn2[C@@H]1O[C@H](CN2CCCC23CCN(CCOc2ccc(F)cc2)CC3)[C@@H](O)[C@H]1O
Ans. 0.347

Qu. What about this molecule? CN1CCC2(CCN2C[C@H]2O[C@@H](n3cnc4c(N)ncnc43)[C@H](O)[C@@H]2O)C1 (stereo partly drawn)
Ans. 1.66

Qu. What about this molecule? Nc1ncnc2c1ccn2[C@@H]1O[C@H](CN2CCCC(N)C2)[C@@H](O)[C@H]1O (stereo partly drawn)
Ans. 0.0288

1: N#CCN1CCC2(CC1)CC(F)(F)CN2C[C@H]1O[C@@H](c2ccc3c(N)ncnn23)[C@H](O)[C@@H]1O
2: NC[C@@H]1COCCN1C[C@H]1O[C@@H](c2ccc3c(N)ncnn23)[C@H](O)[C@@H]1O
Qu. Which shows the larger IC50 value: 1 or 2 ? Pick one and reply with its label.
Ans. 2
(2: 1.55 µM, 1: 0.447 µM)

A: Nc1ncnc2c1ccn2[C@@H]1O[C@H](CN2CCCC23CCN(CC2OCCc4ccccc42)CC3)[C@@H](O)[C@H]1O (stereo partly drawn)
B: CN1CC2(CCN2C[C@H]2O[C@@H](n3cnc4c(N)ncnc43)[C@H](O)[C@@H]2O)C1
Qu. Which shows the larger IC50 value: A or B ? Pick one and reply with its label.
Ans. B

A: Nc1ncnc2c1ncn2[C@@H]1O[C@H](CN2CCC3(CNC3)C2)[C@@H](O)[C@H]1O
B: CN1CCC2(CCN(C[C@H]3O[C@@H](n4cnc5c(N)ncnc54)[C@H](O)[C@@H]3O)C2)C1 (stereo partly drawn)
C: NCC1CCCN(C[C@H]2O[C@@H](n3ccc4c(N)ncnc43)[C@H](O)[C@@H]2O)C1 (stereo partly drawn)
Qu. Which order do these items take when sorted by rising IC50? List them. List the labels, following the order given in the request.
Ans. C, A, B

I: CN1CCC2(CC1)CC(F)(F)CN2C[C@H]1O[C@@H](c2ccc3c(N)ncnn23)[C@H](O)[C@@H]1O
II: CN1CCC2(CCC/C2=C\[C@H]2C[C@@H](n3ccc4c(N)ncnc43)[C@H](O)[C@@H]2O)CC1
Qu. I'm curious whether I or II has the smaller IC50 number. Which is it? Pick one and reply with its label.
Ans. II

###

target: PRMT5-MEP50 enzyme (Homo sapiens); construct: One virus expresses full length human PRMT5 with Flag-tag at N-terminus; assay: In vitro assay (Assay 1): PRMT5-MEP50 high throughput mass spectrometer assay, inhibition of SAH formation; format: biochemical; details: individual measurements shown, read-out: pIC50 Assay 1 (converted)
Endpoint: IC50 (µM)

Some compounds with known IC50 results, for comparison:
Qu. Name the recorded IC50 for Nc1ncnc2c1ccn2[C@@H]1O[C@H](CN2CCOC3(C2)CN(Cc2ccc(Cl)cc2)C3)[C@@H](O)[C@H]1O .
Ans. 3.02

Qu. What about this compound? NCC1CCN(C[C@H]2O[C@@H](n3ccc4c(N)ncnc43)[C@H](O)[C@@H]2O)C1 (stereo partly shown)
Ans. 0.186

Qu. What about this compound? NC[C@H]1COCCN1C[C@H]1O[C@@H](n2ccc3c(N)ncnc32)[C@H](O)[C@@H]1O
Ans. 0.12

Qu. What about this compound? CN1CC2(CCCN2C[C@H]2O[C@@H](n3cnc4c(N)ncnc43)[C@H](O)[C@@H]2O)C1
Ans. 0.776

Qu. What about this compound? Nc1ncnc2c1ccn2[C@@H]1O[C@H](CN2CCCC23CCN(CCC(F)(F)F)CC3)[C@@H](O)[C@H]1O
Ans. 0.275

A: CCN1CCC2(CC1)CC(F)(F)CN2C[C@H]1O[C@@H](c2ccc3c(N)ncnn23)[C@H](O)[C@@H]1O
B: Nc1ncnc2c1ccn2[C@@H]1C[C@H](CN2CCCC23CCNCC3)[C@@H](O)[C@H]1O
Qu. I'm curious whether A or B has the smaller IC50 number. Which is it? Pick one and reply with its label.
Ans. B
(B: 0.0275 µM, A: 3.98 µM)
